- System Name: Voltage-gated potassium channel, KQT; KCNQ2(Kv7.2)/KCNQ3(Kv7.3) (Homo sapiens, UniProt O43525+O43526)
- Sequence (O43526 whole entry): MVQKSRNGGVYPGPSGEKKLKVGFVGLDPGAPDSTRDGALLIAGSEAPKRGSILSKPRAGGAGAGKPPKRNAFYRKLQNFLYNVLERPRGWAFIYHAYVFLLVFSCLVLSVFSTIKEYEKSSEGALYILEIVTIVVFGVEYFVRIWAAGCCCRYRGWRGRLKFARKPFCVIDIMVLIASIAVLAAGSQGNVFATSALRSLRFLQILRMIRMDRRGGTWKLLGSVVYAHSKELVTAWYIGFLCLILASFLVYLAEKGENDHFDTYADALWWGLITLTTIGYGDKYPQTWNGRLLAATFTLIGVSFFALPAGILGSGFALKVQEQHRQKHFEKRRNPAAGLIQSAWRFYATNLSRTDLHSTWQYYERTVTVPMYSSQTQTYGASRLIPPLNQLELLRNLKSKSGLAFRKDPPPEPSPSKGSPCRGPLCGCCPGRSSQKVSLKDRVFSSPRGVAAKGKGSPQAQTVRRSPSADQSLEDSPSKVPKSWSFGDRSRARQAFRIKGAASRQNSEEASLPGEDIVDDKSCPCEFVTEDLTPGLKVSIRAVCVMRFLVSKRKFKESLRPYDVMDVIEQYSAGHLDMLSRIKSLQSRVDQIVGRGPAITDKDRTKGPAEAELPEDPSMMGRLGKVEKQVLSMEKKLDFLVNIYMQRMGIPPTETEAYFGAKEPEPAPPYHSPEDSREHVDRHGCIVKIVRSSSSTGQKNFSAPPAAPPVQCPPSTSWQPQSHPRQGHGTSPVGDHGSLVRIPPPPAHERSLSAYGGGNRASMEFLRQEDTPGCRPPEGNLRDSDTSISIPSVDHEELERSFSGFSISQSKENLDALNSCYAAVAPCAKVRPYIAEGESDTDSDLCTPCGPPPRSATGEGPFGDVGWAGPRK
- Sequence (O43525 whole entry): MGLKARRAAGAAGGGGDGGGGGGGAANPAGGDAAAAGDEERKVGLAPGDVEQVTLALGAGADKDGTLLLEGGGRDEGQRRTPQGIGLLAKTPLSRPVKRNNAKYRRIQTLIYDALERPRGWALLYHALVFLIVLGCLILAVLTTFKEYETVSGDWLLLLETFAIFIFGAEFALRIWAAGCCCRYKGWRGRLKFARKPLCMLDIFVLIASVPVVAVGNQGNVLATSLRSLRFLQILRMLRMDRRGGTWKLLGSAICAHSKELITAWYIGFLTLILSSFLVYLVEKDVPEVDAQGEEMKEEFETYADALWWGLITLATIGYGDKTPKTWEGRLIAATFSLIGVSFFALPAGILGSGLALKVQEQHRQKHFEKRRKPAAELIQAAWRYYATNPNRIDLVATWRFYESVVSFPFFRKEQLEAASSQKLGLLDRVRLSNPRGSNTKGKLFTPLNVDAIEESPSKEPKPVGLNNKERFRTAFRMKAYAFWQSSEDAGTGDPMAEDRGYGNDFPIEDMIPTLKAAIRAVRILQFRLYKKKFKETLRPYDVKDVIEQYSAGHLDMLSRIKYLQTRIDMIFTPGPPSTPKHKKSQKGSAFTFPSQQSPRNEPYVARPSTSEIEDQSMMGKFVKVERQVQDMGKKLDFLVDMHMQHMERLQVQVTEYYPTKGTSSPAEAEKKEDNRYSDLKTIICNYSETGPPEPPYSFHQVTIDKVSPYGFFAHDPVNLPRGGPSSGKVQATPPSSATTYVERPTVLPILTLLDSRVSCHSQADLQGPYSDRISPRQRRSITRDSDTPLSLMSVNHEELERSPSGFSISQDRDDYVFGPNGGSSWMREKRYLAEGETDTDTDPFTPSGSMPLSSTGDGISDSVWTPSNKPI
- Assay Notes: Agonist activity at KCNQ2/KCNQ3 expressed in CHO cells assessed as increase in KCl-induced 86Rb+ efflux incubated for 10 mins prior to KCl-induction by liquid scintillation counting
- Format: functional, cell-based
Measurement Kind: EC50 (µM)
Quick note: give the figure in µM, leave out the unit.

O=C(Nc1ccc(Cl)nc1)c1ccc(-c2ccccc2)cc1    0.26
O=C(Nc1ccc(Cl)nc1)c1ccc(S(=O)(=O)Cc2ccc(F)cc2)c(F)c1    0.16
O=C(Nc1ccc(Cl)nc1)c1ccc(SCc2ccc(F)cc2)c(F)c1    1.6

EC50 for N#Cc1ccc(NC(=O)c2ccc(F)c(F)c2)cn1 ?
10

Proceed to CC(C)CSc1ccc(C(=O)Nc2ccc(Cl)nc2)cc1F
0.14

Item: O=C(Nc1ccc(N2CCOCC2)nc1)c1ccc(F)c(F)c1
7.8

Here is the next compound: CC(C)Oc1ccc(C(=O)Nc2ccc(Cl)nc2)cc1F
0.17

# iterate: COc1ccc(C(=O)Nc2ccc(Cl)nc2)cc1F
3.2
